Consider the following binders; for each one, report its 100 nM hIL-36R-MMH Bound (RU).
- ASSAY_TARGET: T1, human IL-36R extracellular domain expressed with a C-terminal myc-myc-hexahistidine tag (hIL-36R-MMH) (human, UniProt Q9HB29 20-337)
- T1 construct: also called Human IL-36R-MMH; REGN2105
- T1 sequence (Q9HB29 other isoform, or with tags, fused parts or gaps limits assumed): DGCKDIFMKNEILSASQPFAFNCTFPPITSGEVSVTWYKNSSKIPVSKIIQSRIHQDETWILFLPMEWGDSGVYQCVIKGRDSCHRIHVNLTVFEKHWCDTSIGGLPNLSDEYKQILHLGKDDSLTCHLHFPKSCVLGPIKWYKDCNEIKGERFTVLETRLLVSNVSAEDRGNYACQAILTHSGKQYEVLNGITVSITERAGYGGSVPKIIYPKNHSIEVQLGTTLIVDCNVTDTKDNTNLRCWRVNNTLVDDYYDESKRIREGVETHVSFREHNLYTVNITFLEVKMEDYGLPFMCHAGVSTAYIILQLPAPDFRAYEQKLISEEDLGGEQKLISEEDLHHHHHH
- TEST_SUMMARY: SPR Biacore T200, mAb captured on anti-hFc, 37C, PBS-T pH 7.4 running buffer
Answer with a number only, understood to be in RU.

Q: Consider the binder H4H14757P (antibody, human IgG4 S228P, kappa, V domains shown, Fully human anti-IL-36R antibody) VH: EVQLVESGGGLVQPGRSLRLSCTASGFTFDDYAMHWVRQAPGKGLEWVSGIRWNGGSIGYVDSVKGRFTISRDNAKKSLHLQMNSLKTEDTALYYCAKDIGDILTGFYGEYGMDVWGQGTTVTVSS VL: DIQMTQSPSSLSASEGDRVTITCRASQSISSYLNWYQQKAGKAPNLLIYAASSLQSGVPSRFSGSGSGTEYTLTISSLQPEDFATYYCQQSYIIPYTFGQGTKLEIKR . State its measured 100 nM hIL-36R-MMH Bound (RU).
A: 113

Q: Report 100 nM hIL-36R-MMH Bound (RU) for H4H14706P2 (antibody, human IgG4 S228P, kappa, V domains shown, Fully human anti-IL-36R antibody) VH: EVQLVESGGGLVQPGRSLRLSCTASGFTFDDYAIHWVRQSPGKGLEWVSVISWNSDVIGYADSVKGRFTISRDNAKNSLYLQMNSLRAEDTALYYCAKGYNWNFFDYWGQGTLVTVSS VL: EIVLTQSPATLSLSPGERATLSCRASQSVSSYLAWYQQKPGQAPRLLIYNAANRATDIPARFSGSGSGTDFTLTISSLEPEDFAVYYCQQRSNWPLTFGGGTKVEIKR
A: 140
